Could you please report measured Ki for the items listed next?
Biological target: Tyrosinase (Agaricus bisporus)
Sequence (O42713 whole entry): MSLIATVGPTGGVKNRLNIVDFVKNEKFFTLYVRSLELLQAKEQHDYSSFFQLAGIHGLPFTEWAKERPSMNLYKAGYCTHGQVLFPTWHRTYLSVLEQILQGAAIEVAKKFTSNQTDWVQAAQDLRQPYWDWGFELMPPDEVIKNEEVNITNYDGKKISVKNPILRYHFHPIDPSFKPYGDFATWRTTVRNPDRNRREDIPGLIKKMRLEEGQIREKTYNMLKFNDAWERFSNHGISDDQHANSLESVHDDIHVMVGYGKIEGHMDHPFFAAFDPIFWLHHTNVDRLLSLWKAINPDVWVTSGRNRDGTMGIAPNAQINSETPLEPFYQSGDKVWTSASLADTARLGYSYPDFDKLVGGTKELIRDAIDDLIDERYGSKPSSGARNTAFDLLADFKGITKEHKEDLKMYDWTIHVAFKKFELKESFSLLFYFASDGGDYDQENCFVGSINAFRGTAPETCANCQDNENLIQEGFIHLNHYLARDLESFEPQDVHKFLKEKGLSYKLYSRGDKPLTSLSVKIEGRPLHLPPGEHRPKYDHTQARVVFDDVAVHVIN
Experiment: Mixed-type inhibition of mushroom tyrosinase assessed as inhibitory constant for enzyme-substrate complex using varying levels of L-dopa as substrate preincubated for 10 mins followed by substrate addition and measured for 1 min by Lineweaver-burk plot analysis
One number for each entry, in µM.

CHEMICAL_STRING	EXPERIMENTAL_SYSTEM	Ki (µM)
Cc1ccc(C(C)C)c(OC(=O)/C=C/c2ccc(O)cc2)c1	Tyrosinase (Agaricus bisporus)	72.2

Problem: Item COc1ccc(C(C)=O)c(OC(=O)/C=C/c2ccc(F)cc2)c1 has what recorded Ki?
Result: 35.6

====

biological target: UniProt O42713; assay: Inhibition of mushroom tyrosinase at 100 uM using L-dopa as substrate preincubated for 10 mins followed by substrate addition and measured for 1 min by spectrophotometric method relative to control
READOUT: inhibition

Solved cases (4 shown):
CHEMICAL_STRING	inhibition
COc1cc(/C=C/C(=O)Oc2cc(C)ccc2C(C)C)ccc1O	< 40%
COc1ccc(C(C)=O)c(OC(=O)/C=C/c2ccccc2)c1	< 40%
Cc1ccc(C(C)C)c(OC(=O)/C=C/c2ccccc2)c1	< 40%
COc1ccc(C(C)=O)c(OC(=O)/C=C/c2ccc(Cl)cc2)c1	> 40%

Would you be so kind as to report inhibition for each listed record?
1. Cc1ccc(C(C)C)c(OC(=O)/C=C/c2ccc(Cl)cc2)c1
2. Cc1ccc(C(C)C)c(OC(=O)/C=C/c2ccc(O)cc2)c1
3. COc1ccc(/C=C/C(=O)Oc2cc(OC)ccc2C(C)=O)cc1
4. Cc1ccc(/C=C/C(=O)Oc2cc(C)ccc2C(C)C)cc1
5. COc1ccc(C(C)=O)c(OC(=O)/C=C/c2ccc(F)cc2)c1
6. COc1ccc(C(C)=O)c(OC(=O)/C=C/c2ccc(O)c(OC)c2)c1

Result:
["< 40%", "> 40%", "> 40%", "< 40%", "> 40%", "< 40%"]

Problem: Return reported inhibition; argument: COc1ccc(C(C)=O)c(OC(=O)/C=C/c2ccc(C)cc2)c1
Result: > 40%

====

I'd appreciate it if you could supply pKi values for the items below.
target: Tyrosinase (Agaricus bisporus, UniProt O42713); experiment: Mixed-type inhibition of mushroom tyrosinase using varying levels of L-dopa as substrate preincubated for 10 mins followed by substrate addition and measured for 1 min by Lineweaver-burk plot analysis
Answers are plain numbers, as −log10 of the molar value.

CHEMICAL_STRING	pKi
Cc1ccc(C(C)C)c(OC(=O)/C=C/c2ccc(O)cc2)c1	5.10

--- query ---
Problem: Report pKi for COc1ccc(C(C)=O)c(OC(=O)/C=C/c2ccc(F)cc2)c1 tested on Tyrosinase (Agaricus bisporus, UniProt O42713).
Result: 5.00

====

Would you mind telling me the reported inhibition of each entry?
target: Tyrosinase (Agaricus bisporus); test: Inhibition of mushroom tyrosinase at 100 uM using L-dopa as substrate preincubated for 10 mins followed by substrate addition and measured for 1 min by spectrophotometric method relative to control

CHEMICAL_STRING	inhibition
Cc1ccc(C(C)C)c(OC(=O)/C=C/c2ccc(F)cc2)c1	< 40%

Hi! Can you tell me inhibition for each of these compounds?
1. COc1ccc(C(C)=O)c(OC(=O)/C=C/c2ccc(O)cc2)c1
2. COc1ccc(/C=C/C(=O)Oc2cc(C)ccc2C(C)C)cc1

Result:
1. > 40%
2. < 40%

====

target: Tyrosinase (Agaricus bisporus, UniProt O42713); experiment: Noncompetitive inhibition of mushroom tyrosinase using varying levels of L-dopa as substrate preincubated for 10 mins followed by substrate addition and measured for 1 min by Lineweaver-burk plot analysis
READOUT: pKi
Answers are plain numbers, as −log10 of the molar value.

Problem: Fill in the blank: the reported pKi of COc1ccc(C(C)=O)c(OC(=O)/C=C/c2ccc(O)cc2)c1 is ____.
Result: 5.42

====

A short record of pIC50 observed with Tyrosinase (Agaricus bisporus) follows.
Numbers only, as −log10 of the molar value.

Before answering, review these 3 worked examples.
CHEMICAL_STRING	READOUT	REPORTED_MEASUREMENT
COc1ccc(C(C)=O)c(OC(=O)/C=C/c2ccc(C)cc2)c1	pIC50	4.41
COc1ccc(C(C)=O)c(OC(=O)/C=C/c2ccc(Cl)cc2)c1	pIC50	3.79
Cc1ccc(C(C)C)c(OC(=O)/C=C/c2ccc(O)cc2)c1	pIC50	4.97

Problem: # returns recorded pIC50 (system: Tyrosinase (Agaricus bisporus)) for COc1ccc(C(C)=O)c(O)c1
Result: 3.92

====

target: Tyrosinase (Agaricus bisporus, UniProt O42713); assay: Noncompetitive inhibition of mushroom tyrosinase assessed as inhibitory constant for enzyme-substrate complex using varying levels of L-dopa as substrate preincubated for 10 mins followed by substrate addition and measured for 1 min by Lineweaver-burk plot analysis
READOUT: Ki (µM)
Give bare numbers, in µM.

Problem: For COc1ccc(C(C)=O)c(OC(=O)/C=C/c2ccc(O)cc2)c1 , what is its reported Ki?
Result: 3.8

====

Biological target: Tyrosinase (Agaricus bisporus, UniProt O42713)
Sequence (O42713 whole entry): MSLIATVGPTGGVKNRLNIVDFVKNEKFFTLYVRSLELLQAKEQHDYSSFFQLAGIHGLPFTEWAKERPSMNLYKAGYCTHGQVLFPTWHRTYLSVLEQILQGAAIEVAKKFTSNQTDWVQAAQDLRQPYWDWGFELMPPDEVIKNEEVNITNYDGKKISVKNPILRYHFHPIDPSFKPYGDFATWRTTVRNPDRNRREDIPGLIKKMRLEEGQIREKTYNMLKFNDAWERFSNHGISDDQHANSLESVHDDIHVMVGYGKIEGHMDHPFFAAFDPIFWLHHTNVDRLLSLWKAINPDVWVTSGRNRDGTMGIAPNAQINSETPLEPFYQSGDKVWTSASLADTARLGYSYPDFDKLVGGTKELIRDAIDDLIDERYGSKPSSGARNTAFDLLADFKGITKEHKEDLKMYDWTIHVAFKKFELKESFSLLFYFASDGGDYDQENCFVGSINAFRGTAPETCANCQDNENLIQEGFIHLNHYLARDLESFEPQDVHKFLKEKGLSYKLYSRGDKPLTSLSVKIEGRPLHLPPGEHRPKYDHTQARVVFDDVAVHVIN
pIC50: −log10 of the molar value.
Give pIC50 for every item shown.

CHEMICAL_STRING	EXPERIMENTAL_SYSTEM	pIC50
Cc1ccc(C(C)C)c(OC(=O)/C=C/c2ccc(F)cc2)c1	Tyrosinase (Agaricus bisporus, UniProt O42713)	< 4.00
Cc1ccc(C(C)C)c(OC(=O)/C=C/c2ccc(Cl)cc2)c1	Tyrosinase (Agaricus bisporus, UniProt O42713)	< 4.00

Problem: // lookup pIC50 for COc1ccc(C(C)=O)c(OC(=O)/C=C/c2ccccc2)c1
Result: < 4.00
